Source of measurements: patent US11377469B2

Parameter pIC50, tested on CD73 (Homo sapiens (Human), UniProt P21589), listed per item.
Sequence (P21589 27-574): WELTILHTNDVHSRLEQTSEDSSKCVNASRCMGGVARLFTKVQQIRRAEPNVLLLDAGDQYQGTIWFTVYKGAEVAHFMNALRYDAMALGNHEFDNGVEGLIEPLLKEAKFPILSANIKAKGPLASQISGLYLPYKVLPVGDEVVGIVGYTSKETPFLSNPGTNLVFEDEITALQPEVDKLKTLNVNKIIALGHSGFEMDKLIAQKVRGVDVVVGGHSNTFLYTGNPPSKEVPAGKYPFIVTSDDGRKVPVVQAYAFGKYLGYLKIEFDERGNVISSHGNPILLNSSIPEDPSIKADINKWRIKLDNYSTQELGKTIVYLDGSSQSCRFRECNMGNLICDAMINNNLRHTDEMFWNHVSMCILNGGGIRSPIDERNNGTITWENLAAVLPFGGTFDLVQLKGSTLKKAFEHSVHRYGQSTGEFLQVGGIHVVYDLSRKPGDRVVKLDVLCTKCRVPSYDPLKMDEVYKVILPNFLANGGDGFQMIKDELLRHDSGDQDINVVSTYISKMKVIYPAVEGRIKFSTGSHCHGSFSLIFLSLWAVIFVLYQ
pIC50: −log10 of the molar value.

{"columns": ["QUERY_SMILES", "RESULT"],
 "data": [
  ["CC(C)CNc1nc(NCc2cccc(Cl)c2)c2cnn([C@@H]3O[C@H](COCP(=O)(O)O)[C@@H](O)[C@H]3O)c2n1", "< 6.00"],
  ["Cc1nc(NCc2cccc(Cl)c2)c2cnn([C@@H]3O[C@H](COCP(=O)(O)O)[C@@H](O)[C@H]3O)c2n1", "< 6.00"],
  ["O=C(CP(=O)(O)O)NC[C@H]1O[C@@H](n2ncc3c(NCc4ccccc4Cl)nc(Cl)nc32)[C@H](O)[C@@H]1O", "< 6.00"],
  ["O=P(O)(O)COC[C@H]1O[C@@H](n2ncc3c(NC4CCOCC4)nc(Cl)nc32)[C@H](O)[C@@H]1O", "≥ 6.30"],
  ["CN(C[C@H]1O[C@@H](n2nnc3c(NC4CCCC4)nc(Cl)nc32)[C@H](O)[C@@H]1O)C(=O)CP(=O)(O)O", "6.00 to 6.30"]
]}

Prompt: Requested read-out: pIC50. Entry: COc1nc(NCC2CC2)c2cnn([C@@H]3O[C@H](COCP(=O)(O)O)[C@@H](O)[C@H]3O)c2n1
Response: 6.00 to 6.30

Prompt: Requested read-out: pIC50. Entry: Nc1nc(Cl)nc2c1cnn2[C@@H]1O[C@H](COCP(=O)(O)O)[C@@H](O)[C@H]1O
Response: 6.00 to 6.30
